# Procedure details: drug combination growth inhibition, ovarian cancer – cell-based, oncology-focused library, rucaparib conditional, profiling panel (AID 1508598)
# Condition context: patient-derived ovarian cancer cells, CellTiter-Glo viability, 144 h; at 0.313 µM; OCI-C5x cells; without rucaparib; stronger effect = lower value
Calls of active or inactive are those of the source.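 Rule for the calls: active = normalized viability below 100% at a tested concentration; inactive = the rest.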
Item-by-item account of viability

Molecule	viability
CO[C@H]1/C=C\C=C(\C)C(=O)NC2=CC(=O)C(NCCN(C)C)=C(C[C@@H](C)C[C@H](OC)[C@H](O)[C@@H](C)/C=C(\C)[C@@H]1OC(N)=O)C2=O	10.1% (active)

Asked: Recorded viability of CC1=C(/C=C/C(C)=C\C=C\C(C)=C/C(=O)O)C(C)(C)CCC1 , please.
Given back: 106% (inactive)

Asked: Recorded viability of CC(=O)O[C@H]1C(=O)[C@@]2(C)C([C@H](OC(=O)c3ccccc3)[C@]3(O)C[C@H](OC(=O)[C@H](O)[C@@H](NC(=O)c4ccccc4)c4ccccc4)C(C)=C1C3(C)C)[C@]1(OC(C)=O)CO[C@@H]1C[C@H]2O (stereo partly drawn) , please.
Given back: 29.8% (active)

---

# Procedure details: compounds altering viability of human ES cells (AID 493140);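 note: cells exposed to compounds for four days before counting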
# Condition context: human embryonic stem cell survival screen; stronger effect = higher value
Item-by-item account of survival
I'd appreciate a reply containing only the number, no unit.

For orientation, consider the following solved cases.
Compound	survival
CO/N=C(/C(=O)N[C@@H]1C(=O)N2C(C(=O)[O-])=C(C[N+]3(C)CCCC3)CS[C@H]12)c1csc(N)n1	5.92
CC[C@H]1OC(=O)[C@H](C)[C@@H](O[C@H]2C[C@@](C)(OC)[C@@H](O)[C@H](C)O2)[C@H](C)[C@@H](O[C@H]2O[C@H](C)C[C@H](N(C)C)[C@H]2O)[C@](C)(O)C[C@@H](C)C(=O)[C@H](C)[C@@H](O)[C@]1(C)O	35.4
CCCCC[C@H](O)/C=C/C=C/C=C/[C@H](O)C/C=C\CCCC(=O)O	107
Brc1ccc([C@H]2CN3CCSC3=N2)cc1	79.5
c1ccc2c3c([nH]c2c1)C1C2CCC(C4CCCNC42)N1CC3 (stereo not given)	1.58
NCC1OC(OC2C(N)CC(N)C(OC3OC(CO)C(O)C(N)C3O)C2O)C(N)CC1O (stereo not given)	1.08
c1ccc(CNc2ncnc3nc[nH]c23)cc1	39
CC[C@H](C)[C@H]1O[C@]2(CC[C@@H]1C)C[C@@H]1C[C@@H](C/C=C(\C)C(O[C@H]3C[C@H](OC)[C@@H](O[C@H]4C[C@H](OC)[C@@H](O)[C@H](C)O4)[C@H](C)O3)[C@@H](C)/C=C/C=C3\CO[C@@H]4[C@H](O)C(C)=C[C@@H](C(=O)O1)[C@]34O)O2 (stereo not given in full)	17.6
CCCCC/C=C\C/C=C\C/C=C\C/C=C\CCCC(=O)O[C@@H](CO)COC(=O)CCCCCCCCCCCCCCCCC	92.4
COc1ccc2cc([C@@H](C)C(=O)O)ccc2c1	10.1

Asked: Recorded survival of O=Cc1c2[nH]c3ccccc3c2cc2[nH]c3ccccc3c12 , please.
Given back: 124

---

# Procedure details: growth inhibition, single agent and combos, cell-based, chromothripsis tumors, cisplatin or BGB combos (AID 1671450);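 note: cells exposed to compound for four days; 0% = vehicle DMSO and 100% = cell killing by high DMSO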
# Condition context: HDN33 neuroblastoma cells, cisplatin combo, at 5 µM, stronger effect = higher value
Assay endpoint: inhibition (%)
Give the number; % is assumed, so skip it.

For orientation, consider the following solved cases.
Compound	Assay endpoint	Data value
CC(C=CC(=O)NO)=CC(C)C(=O)c1ccc(N(C)C)cc1 (stereo not given)	inhibition	99.9
Cc1c(Br)cc(NCC(=O)N/N=C/c2cc([N+](=O)[O-])ccc2O)cc1Br	inhibition	36.1
CN(C)C(=S)NN=C(c1ccccn1)c1ccccn1	inhibition	96.8
C[n+]1ccc(-c2c3nc(c(-c4cc[n+](C)cc4)c4ccc([nH]4)c(-c4cc[n+](C)cc4)c4nc(c(-c5cc[n+](C)cc5)c5ccc2[nH]5)C=C4)C=C3)cc1	inhibition	-48.7
CC(C)(O)[C@H]1CC[C@@](C)(C2[C@@H](O)C[C@@]3(C)[C@@H]4C[C@H](O)C5C(C)(C)[C@@H](O)CCC56CC46CC[C@]23C)O1 (stereo not given in full)	inhibition	-13.8
NC(=O)c1cccc2cn(-c3ccc(C4CCCNC4)cc3)nc12 (stereo not given)	inhibition	28.2
C=C1C(=O)O[C@@H]2C=C(C)CCC=C(C)CC[C@@H]12	inhibition	29.9
CON=C1CN(c2nc3c(cc2F)c(=O)c(C(=O)O)cn3C2CC2)CC1CN (stereo not given)	inhibition	-7.53
Nc1ccn(C2CCC(CO)O2)c(=O)n1 (stereo not given)	inhibition	-14
NC(=O)c1ncn(C2OC(CO)C(O)C2O)c1O (stereo not given)	inhibition	-12.8

Asked: Recorded inhibition of NC(=S)NN=Cc1ncccc1N , please.
Given back: 80.1

Asked: Recorded inhibition of Cc1cc(C)c(Nc2ccnc(Nc3ccc(C#N)cc3)n2)c(C)c1 , please.
Given back: 3.99

Asked: Recorded inhibition of CO[C@H]1/C=C/O[C@@]2(C)Oc3c(C)c(O)c4c(O)c(c5c(c4c3C2=O)=NC2(CCN(CC(C)C)CC2)N=5)NC(=O)/C(C)=C\C=C\[C@H](C)[C@H](O)[C@@H](C)[C@@H](O)[C@@H](C)[C@H](OC(C)=O)[C@@H]1C , please.
Given back: -9.76

Asked: Recorded inhibition of CC1CN(c2c(F)c(N)c3c(=O)c(C(=O)O)cn(C4CC4)c3c2F)CC(C)N1 (stereo not given) , please.
Given back: -6.01

Asked: Recorded inhibition of CCC(Sc1nnc2c3ccccc3n(CC)c2n1)C(=O)Nc1ccccc1OC (stereo not given) , please.
Given back: 7.7
